Test system: Staph. aur. 5
Experiment: In vitro antibacterial activity (MIC), BHI agar
Format: cell-based
Settings: 18 hours at 37° C., read-out: Minimum Inhibitory Concentration (MIC)
Experimental: The procedure which is followed is the one recommended by the International Collaborative Study on Antibiotic Sensitivity Testing [Ericcson and Sherris, Acta. Pathologica et Microbiologia Scandinav, Supp. […] Single colonies are disregarded when reading plates after 18 hours at 37° C. […] A comparison of the in vitro activity of various compounds of the formulae (I) and (II) with tylonolide is recorded in Table 1.
Measurement Label: MIC
Could you give the number and then its unit, please?

>>> print(df.to_string())
                                   compound  value_measured
0  CCC1OC(=O)CC(O)C(C)C(OC2OC(C)C(O)C(N(C)C)C2O)C(CC=O)CC(C)C(=O)C=CC(C)=CC1CI (centres unmarked) [(d)]      0.39 µg/mL

Look up MIC for the entries below, preserving their order.
1. CCC1OC(=O)CC(OC(C)=O)C(C)C(OC2OC(C)C(O)C(N(C)C)C2O)C(CC=O)CC(C)C(=O)C=CC(C)=CC1CN(C)C (centres unmarked) [(f)]
2. CCC1OC(=O)CC(O)C(C)C(OC2OC(C)C(O)C(N(C)C)C2O)C(CC=NN(C)C)CC(C)C(=O)C=CC(C)=CC1CI (centres unmarked) [(e)]
3. CCC1OC(=O)CC(O)C(C)C(OC2OC(C)C(O)C(N(C)C)C2O)C(CC=O)CC(C)C(=O)C=CC(C)=CC1CN(C)C (centres unmarked) [(h)]
4. CCC1OC(=O)CC(O)C(C)C(OC2OC(C)C(O)C(N(C)C)C2O)C(CC=O)CC(C)C(=O)C=CC(C)=CC1COS(=O)(=O)c1ccc(C)cc1 (centres unmarked) [(b)]

A)
3.12 µg/mL
0.2 µg/mL
0.78 µg/mL
0.78 µg/mL
